molecular target: C-C chemokine receptor type 2 (Homo sapiens, UniProt P41597); test: Displacement of [125I]-MCP1 from CCR2 in human THP1 cells after 2 hrs by microplate scintillation and luminescence counting; assay type: cell-based, THP-1
Sequence (P41597 whole entry): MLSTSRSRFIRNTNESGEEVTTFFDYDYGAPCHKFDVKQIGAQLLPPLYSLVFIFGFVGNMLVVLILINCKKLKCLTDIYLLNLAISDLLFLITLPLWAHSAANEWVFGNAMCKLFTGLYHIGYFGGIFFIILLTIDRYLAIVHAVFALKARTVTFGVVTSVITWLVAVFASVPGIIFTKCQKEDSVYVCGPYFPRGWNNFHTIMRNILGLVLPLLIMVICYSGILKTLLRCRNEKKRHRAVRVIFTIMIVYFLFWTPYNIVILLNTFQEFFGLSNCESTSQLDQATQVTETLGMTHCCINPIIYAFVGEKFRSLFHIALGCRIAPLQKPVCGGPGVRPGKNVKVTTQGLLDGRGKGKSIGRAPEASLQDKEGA
MEASURED ATTRIBUTE: IC50

1. O=C(CNC(=O)c1cccc(C(F)(F)F)c1)NC1CN([C@H]2CC[C@@H](c3ccc4c(c3)OCO4)CC2)C1 | 0.005 µM
2. O=C(CNC(=O)c1cccc(C(F)(F)F)c1)NC1CN([C@H]2CC[C@H](c3ccc(O)cc3)CC2)C1 | 0.021 µM
3. O=C(CNC(=O)c1cccc(C(F)(F)F)c1)NC1CN([C@H]2CC[C@H](c3ccc4c(c3)OCO4)CC2)C1 | 1.8 µM
4. Cc1cccc(C)c1[C@]1(O)CC[C@@H](N2CC(NC(=O)CNC(=O)c3cccc(C(F)(F)F)c3)C2)CC1 | > 25 µM
5. O=C(CNC(=O)c1cccc(C(F)(F)F)c1)NC1CN([C@H]2CC[C@](O)(c3ccc(F)cc3)CC2)C1 | 0.21 µM
6. O=C(CNC(=O)c1cccc(C(F)(F)F)c1)NC1CN([C@H]2CC[C@](O)(c3ccc4c(c3)OCC4)CC2)C1 | 0.025 µM
7. O=C(CNC(=O)c1cccc(C(F)(F)F)c1)NC1CN(C2CCC(c3c[nH]c4ccccc34)CC2)C1 (mixture of isomers) | < 1 µM
8. COc1cnccc1[C@H]1CC[C@H](N2CC(NC(=O)CNC(=O)c3cccc(C(F)(F)F)c3)C2)CC1 | 0.032 µM

The measured values listed here are drawn from ChEMBL document CHEMBL1828623.
